Protocol details: endothelial E-selectin expression blockers – imaging, HUVEC, immunofluorescence, MLSMR starter and 10KST1 sets, primary screen (AID 487);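 note: signal is fraction of cell area covered by stained E-selectin grains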
Measurement setup: HUVEC TNFalpha-induced E-selectin immunofluorescence imaging, at 2 µM; active compounds read high
Parameter measured: inhibition (%)
Kindly answer with a numeric value in %, unit omitted.

COc1ccc(CCNC(=O)C2CCCN(c3nn4c(=O)cc(C)nc4s3)C2)cc1OC (stereo unspecified) :: -9
Cn1c(SCc2ccc3c(c2)OCO3)nnc1-c1ccccc1 :: -72.5
O=C(NCCc1ccccc1)c1cc(-c2ccco2)on1 :: -29.5
CC(=O)Nc1ccc(S(=O)(=O)N2CCSC2c2ccccc2)cc1 (stereo unspecified) :: -34.7

Ask | Value lookup for inhibition; key = `CCCn1c2ccccc2c2nnc(SCC(=O)Nc3ncccn3)nc21`
Reply | -10.4

Ask | Field request: inhibition | item: `CCCCN(c1ccccc1)S(=O)(=O)c1ccc2c(c1)CCN2C(=O)CCC(=O)O`
Reply | -65.5
